Where these numbers come from: ChEMBL document CHEMBL1154545

Would you mind telling me the reported log10(IC50) of each entry?
EXPERIMENTAL TARGET: Insulin-like growth factor 1 receptor (Homo sapiens)
Log10 applied to IC50; unit prior to transform: nM.

Record log10(IC50) per entry; entries follow.
1. COc1cc2c(cc1Nc1nc(Nc3ccsc3C(N)=O)c3cc[nH]c3n1)N(C(=O)CN(C)C)CCC2(C)C [GSK-2163632A]
2. COc1cc(N2CCN(C(C)C)CC2)ccc1Nc1nc(Nc2ccccc2OC)c2cc[nH]c2n1
3. COc1cc2c(cc1Nc1nc(Nc3cccnc3C(N)=O)c3cc[nH]c3n1)N(C(=O)CN(C)C)CCC2

**A:**
[-0.70, 1.51, -0.30]

Record log10(IC50) per entry; entries follow.
1. COc1cc2c(cc1Nc1nc(Nc3cccnc3C(N)=O)c3cc[nH]c3n1)N(C(=O)CN(C)C)CC2
2. COc1cc(N2CCN(C(C)C)CC2)ccc1Nc1nc(Nc2cccc(F)c2C(N)=O)c2cc[nH]c2n1
3. COc1cc(N2CCN(C(C)C)CC2)ccc1Nc1nc(Nc2cccc3c2NCC3)c2cc[nH]c2n1
4. COc1cc(N2CCN(C(C)C)CC2)ccc1Nc1nc(Nc2cccc3ncccc23)c2cc[nH]c2n1 [GSK-1511931A]
5. COc1cc(N2CCN(C(C)C)CC2)ccc1Nc1nc(Nc2cc(F)ccc2C(N)=O)c2cc[nH]c2n1

**A:**
1: -0.15; 2: 0.30; 3: 2.60; 4: 2.40; 5: -0.15

----------
EXPERIMENTAL TARGET: Insulin-like growth factor 1 receptor (Homo sapiens, UniProt P08069)
pIC50: −log10 of the molar value.
Classify as follows. Reported pIC50 greater than or equal to 6: T. Reported pIC50 below: F.

Use these answered entries as a reference point.
[
  {
    "COMPOUND": "COc1cc(N2CCN(C(C)C)CC2)ccc1Nc1nc(-n2[nH]c(=O)c3ccccc32)c2cc[nH]c2n1",
    "LABEL VALUE": "T"
  },
  {
    "COMPOUND": "COc1cc2c(cc1Nc1nc(Nc3ccoc3C(N)=O)c3cc[nH]c3n1)N(C(=O)CN(C)C)CCC2",
    "LABEL VALUE": "T"
  },
  {
    "COMPOUND": "COc1cc2c(cc1Nc1nc(Nc3ccsc3C(N)=O)c3cc[nH]c3n1)N(C(=O)CN(C)C)CCC2(C)C [GSK-2163632A]",
    "LABEL VALUE": "T"
  },
  {
    "COMPOUND": "COc1cc(N2CCN(C(C)C)CC2)ccc1Nc1nc(Nc2cccc(F)c2C(N)=O)c2cc[nH]c2n1",
    "LABEL VALUE": "T"
  },
  {
    "COMPOUND": "CCCN1CCC(c2ccc(Nc3nc(Nc4ccsc4C(N)=O)c4cc[nH]c4n3)c(OC)c2)CC1",
    "LABEL VALUE": "T"
  }
]

**Q:** // inclusive: pIC50 at least 6? input: COc1cc2c(cc1Nc1nc(N3CCc4ccccc43)c3cc[nH]c3n1)N(C(=O)CN(C)C)CC2 [GSK-2186269A]
**A:** T

**Q:** // inclusive: pIC50 at least 6? input: `COc1cc(N2CCN(C(C)C)CC2)ccc1Nc1nc2[nH]ccc2c2nc3cccc(F)c3c(=O)n12`
**A:** F

**Q:** // inclusive: pIC50 at least 6? input: COc1cc(N2CCN(C(C)C)CC2)ccc1Nc1nc(Nc2cccc3ncccc23)c2cc[nH]c2n1 [GSK-1511931A]
**A:** F

**Q:** // inclusive: pIC50 at least 6? input: `COc1cc2c(cc1Nc1nc(Nc3cccc(F)c3C(N)=O)c3cc[nH]c3n1)N(C(=O)CN(C)C)CC2`
**A:** T

**Q:** // inclusive: pIC50 at least 6? input: `COc1cc(N2CCN(C(C)C)CC2)ccc1Nc1nc(N2CCc3ccccc32)c2cc[nH]c2n1`
**A:** F

----------
What follows is a record of pIC50 for Insulin-like growth factor 1 receptor (Homo sapiens, UniProt P08069).
Numbers only, as −log10 of the molar value.

[
  {
    "COMPOUND": "COc1cc(N2CCN(C(C)C)CC2)ccc1Nc1nc(Nc2ccccc2-n2cccn2)c2cc[nH]c2n1",
    "pIC50": 7.60
  }
]

We next turn to a different compound, shown below.
**Q:** Any idea what its pIC50 is? The compound is COc1cc2c(cc1Nc1nc(N3CCc4ccccc43)c3cc[nH]c3n1)N(C(=O)CN(C)C)CC2 [GSK-2186269A]
**A:** 9.10

----------
RUN DESCRIPTION: Chemical stability assessed as half life in 0.1 N HCl by LC-MS
Format: physicochemical
Would you mind telling me the reported half-life of each entry?
Give bare numbers, in h.

[
  {
    "ENTRY SMILES": "COc1cc2c(cc1Nc1nc(Nc3cccnc3C(N)=O)c3cc[nH]c3n1)N(C(=O)CN(C)C)CC2",
    "half-life / h": 15
  }
]

We next turn to a different molecule, shown below.
**Q:** Any idea what its half-life is? The molecule is `COc1cc(N2CCN(C(C)C)CC2)ccc1Nc1nc(Nc2cc(F)cc(F)c2C(N)=O)c2cc[nH]c2n1`
**A:** 39

----------
RUN DESCRIPTION: Chemical stability assessed as half life in 0.1 N HCl by LC-MS
Assay type: physicochemical
MEASURED PROPERTY: half-life (days)
One number for each entry, in days.

[
  {
    "COMPOUND": "COc1cc(N2CCN(C(C)C)CC2)ccc1Nc1nc(Nc2cccc(F)c2C(N)=O)c2cc[nH]c2n1",
    "half-life (days)": 0.708
  },
  {
    "COMPOUND": "COc1cc(N2CCN(C(C)C)CC2)ccc1Nc1nc(Nc2ccc(F)cc2C(N)=O)c2cc[nH]c2n1 [GSK-1220512A]",
    "half-life (days)": 0.0833
  },
  {
    "COMPOUND": "COc1cc2c(cc1Nc1nc(Nc3cccnc3C(N)=O)c3cc[nH]c3n1)N(C(=O)CN(C)C)CCC2",
    "half-life (days)": 1.12
  }
]

Record half-life per entry; entries follow.
1. COc1cc(N2CCN(C(C)C)CC2)ccc1Nc1nc(Nc2ccc(F)c(F)c2C(N)=O)c2cc[nH]c2n1
2. COc1cc2c(cc1Nc1nc(Nc3ccsc3C(N)=O)c3cc[nH]c3n1)N(C(=O)CN(C)C)CCC2 [GSK-2110236A]
3. COc1cc(N2CCN(C(C)C)CC2)ccc1Nc1nc(Nc2cc(F)ccc2C(N)=O)c2cc[nH]c2n1
4. CCCN1CCC(c2ccc(Nc3nc(Nc4ccsc4C(N)=O)c4cc[nH]c4n3)c(OC)c2)CC1
5. COc1cc2c(cc1Nc1nc(Nc3ccsc3C(N)=O)c3cc[nH]c3n1)N(C(=O)CN(C)C)CCC2(C)C [GSK-2163632A]
6. COc1cc2c(cc1Nc1nc(Nc3cccc(F)c3C(N)=O)c3cc[nH]c3n1)N(C(=O)CN(C)C)CC2

**A:**
0.708
34.6
0.167
38.3
30
0.0833

Record half-life per entry; entries follow.
1. COc1cc2c(cc1Nc1nc(Nc3ccsc3C(N)=O)c3cc[nH]c3n1)N(C(=O)CN(C)C)CC2
2. COc1cc(N2CCC(N3CCN(S(C)(=O)=O)CC3)CC2)ccc1Nc1nc(Nc2ccsc2C(N)=O)c2cc[nH]c2n1
3. CNC(=O)c1cscc1Nc1nc(Nc2cc3c(cc2OC)CCN3C(=O)CN(C)C)nc2[nH]ccc12

**A:**
[10.4, 17.9, 16.2]

----------
EXPERIMENTAL TARGET: ALK tyrosine kinase receptor (Homo sapiens)
MEASURED PROPERTY: IC50 (nM)
Give bare numbers, in nM.

**Q:** Any idea what its IC50 is? The molecule is `COc1cc2c(cc1Nc1nc(Nc3ccsc3C(N)=O)c3cc[nH]c3n1)N(C(=O)CN(C)C)CC2`
**A:** 0.4

----------
Would you mind telling me the reported log10 IC50 of each entry?
EXPERIMENTAL TARGET: Insulin-like growth factor 1 receptor (Homo sapiens, UniProt P08069)
Log10 applied to IC50; unit prior to transform: nM.

Record log10 IC50 per entry; entries follow.
1. COc1cc(N2CCN(CC(C)C)CC2)ccc1Nc1nc(Nc2ccccc2C#N)c2cc[nH]c2n1
2. COc1cc2c(cc1Nc1nc(Nc3ccsc3C(N)=O)c3cc[nH]c3n1)N(C(=O)CN(C)C)CCC2 [GSK-2110236A]

**A:**
3.44
0.78

----------
RUN DESCRIPTION: Clearance in rat at 2.2 mg/kg, iv or 9.8 mg/kg, po
Assay type: ADME, organism-based
CONDITION LABEL: in vivo
MEASURED PROPERTY: clearance (mL/min/kg)
One number for each entry, in mL/min/kg.

**Q:** Any idea what its clearance is? The molecule is `COc1cc(N2CCN(C(C)C)CC2)ccc1Nc1nc2[nH]ccc2c2nc3cccc(F)c3c(=O)n12`
**A:** 47
